# Target Or Test System: Mus musculus core RBPJ, residues 53-474 (Mus musculus, UniProt P31266 53-474)
# Sequence (P31266 53-474): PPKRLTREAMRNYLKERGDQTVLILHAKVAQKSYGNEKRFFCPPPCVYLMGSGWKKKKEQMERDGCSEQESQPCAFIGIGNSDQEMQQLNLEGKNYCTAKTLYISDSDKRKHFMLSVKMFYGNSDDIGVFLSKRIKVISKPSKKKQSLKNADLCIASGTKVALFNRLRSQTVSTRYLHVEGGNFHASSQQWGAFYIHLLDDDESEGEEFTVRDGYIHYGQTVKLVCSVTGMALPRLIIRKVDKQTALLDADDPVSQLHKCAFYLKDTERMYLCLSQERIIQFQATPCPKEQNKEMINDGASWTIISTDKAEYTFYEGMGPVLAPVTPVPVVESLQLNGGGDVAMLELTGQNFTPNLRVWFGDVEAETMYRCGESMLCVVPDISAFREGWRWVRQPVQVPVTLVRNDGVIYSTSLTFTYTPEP
# Assay Overview: ITC
Observation Type: fold reduction in binding against native SHARP

Known fold reduction in binding against native SHARP results, listed for orientation:
{"Binder": "SMT3-SHARP (2776-2833) K2807A (domain or fragment, UniProt Q96T58 2802-2859, looked up) SGAGLRVNTSEGVVLLSYSGQKTEGPQRISAAISQIPPASAMDIEFQQSVSKSQVKPD", "Test Value": "~6 fold"}
{"Binder": "SMT3-SHARP (2776-2833) I2811A (domain or fragment, UniProt Q96T58 2802-2859, looked up) SGAGLRVNTSEGVVLLSYSGQKTEGPQRISAKISQAPPASAMDIEFQQSVSKSQVKPD", "Test Value": "> 60 fold"}
{"Binder": "SMT3-SHARP (2776-2833) Y2793A (domain or fragment, UniProt Q96T58 2802-2859, looked up) SGAGLRVNTSEGVVLLSASGQKTEGPQRISAKISQIPPASAMDIEFQQSVSKSQVKPD", "Test Value": "> 20 fold"}

Please find the next binder below.
Which fold reduction in binding against native SHARP value belongs to SMT3-SHARP (2776-2833) V2789A (domain or fragment, UniProt Q96T58 2802-2859, looked up) SGAGLRVNTSEGVALLSYSGQKTEGPQRISAKISQIPPASAMDIEFQQSVSKSQVKPD ?
> 10 fold
